# Lookup of reported Inhibition of production of lipid peroxide in rat brain homogenate keyed by entry
Test system: lipid peroxide in rat brain homogenate
Assay: Inhibition of production of lipid peroxide in rat brain homogenate
Type: biochemical, rat (Sprague-Dawley)
Conditions: 10^-6 M
Provide only the numeric value, understood in %.

Example entries begin here.
1. CCC(C1=C(C)C(=O)C(C)=C(C)C1=O)c1cccnc1 (stereo not shown) : 100
2. CC1=C(C)C(=O)C(C(CCCCCC(=O)O)c2cccnc2)=C(C)C1=O (stereo not shown) : 84
3. CC1=C(C)C(=O)C(C(CCCCC(=O)O)c2cccnc2)=C(C)C1=O (stereo not shown) : 100

Qu. Fill in the blank: the reported Inhibition of production of lipid peroxide in rat brain homogenate of CC1=C(C)C(=O)C(C(c2ccccc2)c2cccnc2)=C(C)C1=O (stereo not shown) is ____.
Ans. 100

====

Target: Thromboxane A2 (TXA2) synthetase (Equus caballus, UniProt A0A9L0T8T9)
Sequence (A0A9L0T8T9 2-534): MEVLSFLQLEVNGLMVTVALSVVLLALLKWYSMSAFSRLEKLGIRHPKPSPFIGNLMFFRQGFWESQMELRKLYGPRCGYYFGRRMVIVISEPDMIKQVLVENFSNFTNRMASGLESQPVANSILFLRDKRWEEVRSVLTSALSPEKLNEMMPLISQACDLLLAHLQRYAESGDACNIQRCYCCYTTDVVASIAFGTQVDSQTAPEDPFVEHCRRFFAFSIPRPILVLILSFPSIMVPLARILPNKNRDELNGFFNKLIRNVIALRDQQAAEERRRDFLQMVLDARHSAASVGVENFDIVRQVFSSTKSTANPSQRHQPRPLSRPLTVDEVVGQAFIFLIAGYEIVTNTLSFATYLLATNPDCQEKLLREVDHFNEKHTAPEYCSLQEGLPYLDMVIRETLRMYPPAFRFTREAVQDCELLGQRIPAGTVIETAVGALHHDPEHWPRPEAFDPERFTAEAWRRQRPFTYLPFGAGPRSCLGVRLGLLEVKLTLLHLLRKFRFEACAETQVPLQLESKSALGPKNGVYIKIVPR
Experiment: Inhibition of Thromboxane A2 (TXA2) synthetase (horse platelet microsome)
Format: biochemical
Settings: 10^-6 M; read-out: Inhibition of Thromboxane A2 (TXA2) synthetase
test.readout: inhibition at 1 µM (%)
Give the value in % but do not write % after it.

# example entries with known answers
1. CC(=O)OCCCCCC(C1=C(C)C(=O)C(C)=C(C)C1=O)c1cccnc1 (stereo not drawn) [compound 12] : 56
2. CC1=C(C)C(=O)C(C(CCCCO)c2cccnc2)=C(C)C1=O (stereo not drawn) [compound 8] : 37
3. CC(=Cc1ccc(C(C2=C(C)C(=O)C(C)=C(C)C2=O)c2cccnc2)cc1)C(=O)O (stereo not drawn) [Compound No. 5] : 65
4. CCC(C1=C(C)C(=O)C(C)=C(C)C1=O)c1cccnc1 (stereo not drawn) [compound 15] : 76
5. CC(=O)OCCCCC(C1=C(C)C(=O)C(C)=C(C)C1=O)c1cccnc1 (stereo not drawn) [compound 9] : 54
6. CC1=C(C)C(=O)C(C(C)c2cccnc2)=C(C)C1=O (stereo not drawn) [Compound No. 1] : 76
7. CC1=C(C)C(=O)C(C(CCCCCC(=O)O)c2cccnc2)=C(C)C1=O (stereo not drawn) [Compound No. 13] : 87
8. CC1=C(C)C(=O)C(Cc2cccnc2)=C(C)C1=O [Compound No. 14] : 61
9. CC1=C(C)C(=O)C(C(CCCCC(=O)O)c2cccnc2)=C(C)C1=O (stereo not drawn) [compound 10] : 67
10. CCCCCCC(C1=C(C)C(=O)C(C)=C(C)C1=O)c1cccnc1 (stereo not drawn) [Compound No. 16] : 49

Qu. Quick one: inhibition at 1 µM for CCCCC(C1=C(C)C(=O)C(C)=C(C)C1=O)c1cccnc1 (stereo not drawn) [Compound No. 7] ?
Ans. 32

Qu. Can you look up the measured inhibition at 1 µM of CC1=C(C)C(=O)C(C(CCCCCO)c2cccnc2)=C(C)C1=O (stereo not drawn) [compound 11] for me?
Ans. 67

Taken from patent US4985447A.
